# System: P12-Ichikawa
# assay name: cell viability relative to DMSO control; higher = less cytotoxic
# particulars: RPMI 5 mM glucose + 10% dialyzed FBS; 48 h; 0.00234 µM
observed property: cell viability (%)
Return type: number; implicit unit %.

Query string: Give the reported value of cell viability for this record: CN1c2ccccc2C(=O)N2CCc3c([nH]c4ccccc34)C21 (stereo not drawn)
Result string: 122

Query string: Give the measured cell viability for `NC(=O)c1cccc2cn(-c3ccc([C@@H]4CCCNC4)cc3)nc12`
Result string: 98.6

Query string: Check the records and state cell viability for `c1ccc(CNc2nc(N3CCOc4ccccc43)nc3c2CCCC3)cc1`
Result string: 112

Query string: For the molecule `O=C(O)CCn1c2c(c3ccccc31)C[C@H](N[S+](=O)([O-])c1ccc(F)cc1)CC2` , report cell viability.
Result string: 116

Query string: Give the value of cell viability reported for the following: `COc1ccc([C@@H]2CC(=O)c3c(O)cc(O[C@@H]4O[C@H](CO[C@@H]5O[C@@H](C)[C@H](O)[C@@H](O)[C@H]5O)[C@@H](O)[C@H](O)[C@H]4O)cc3O2)cc1O`
Result string: 111

Query string: Give the value of cell viability reported for the following: `CC1(N2CCC(n3c([C@@H]4CCCNC4)nc4ccccc43)CC2)CCCCCCC1`
Result string: 101

Query string: Please supply the value of reported cell viability for the item `NCCCCNCCCN`
Result string: 102

Query string: Please list cell viability recorded for the molecule `COc1cc([C@H]2Oc3cc([C@H]4Oc5cc(O)cc(O)c5C(=O)[C@@H]4O)ccc3O[C@@H]2CO)ccc1O`
Result string: 109
